- target: Ephrin type-B receptor 4 (Homo sapiens) (UniProt P54760);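 also: each value is a mean percent inhibition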
- Sequence (P54760 whole entry): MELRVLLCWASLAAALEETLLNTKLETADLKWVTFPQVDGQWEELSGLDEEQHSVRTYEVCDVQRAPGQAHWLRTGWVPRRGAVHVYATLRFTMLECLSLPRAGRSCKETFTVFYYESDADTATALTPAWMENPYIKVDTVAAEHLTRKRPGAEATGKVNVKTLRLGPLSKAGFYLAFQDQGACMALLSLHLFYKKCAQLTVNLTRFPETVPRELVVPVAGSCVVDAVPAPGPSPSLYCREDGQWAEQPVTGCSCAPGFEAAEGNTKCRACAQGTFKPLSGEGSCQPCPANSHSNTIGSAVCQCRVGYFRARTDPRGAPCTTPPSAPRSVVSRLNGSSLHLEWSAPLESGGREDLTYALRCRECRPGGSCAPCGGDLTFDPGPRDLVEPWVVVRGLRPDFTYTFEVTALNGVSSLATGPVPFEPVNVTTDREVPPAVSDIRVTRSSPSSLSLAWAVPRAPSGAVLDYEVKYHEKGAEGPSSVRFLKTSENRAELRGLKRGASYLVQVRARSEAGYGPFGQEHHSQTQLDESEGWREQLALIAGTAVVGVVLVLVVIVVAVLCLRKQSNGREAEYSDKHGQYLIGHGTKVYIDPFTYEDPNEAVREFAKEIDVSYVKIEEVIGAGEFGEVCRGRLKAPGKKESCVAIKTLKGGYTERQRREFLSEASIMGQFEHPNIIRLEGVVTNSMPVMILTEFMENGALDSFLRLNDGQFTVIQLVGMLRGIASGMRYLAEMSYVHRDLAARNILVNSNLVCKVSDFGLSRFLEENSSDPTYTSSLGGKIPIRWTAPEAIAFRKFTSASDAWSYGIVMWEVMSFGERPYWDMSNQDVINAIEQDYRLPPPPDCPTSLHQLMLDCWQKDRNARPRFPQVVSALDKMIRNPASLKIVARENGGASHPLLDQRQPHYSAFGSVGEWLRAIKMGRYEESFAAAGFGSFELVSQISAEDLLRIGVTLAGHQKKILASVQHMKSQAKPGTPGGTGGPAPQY
- experimental-conditions: at 0.1 µM
endpoint: inhibition (%)
Lab book: enter the figure in %, no units written.

CC1=C(C(=O)Nc2ccc3[nH]ncc3c2)C(c2ccc(F)cc2)NC(=O)N1 (centres undefined) :: -1.65
CS(=O)(=O)CCNCc1ccc(-c2ccc3ncnc(Nc4ccc(OCc5ccccc5)c(Cl)c4)c3c2)o1 :: 1.93
Cc1ccc(NC(=O)c2ccnc(N3CCCC3)c2)cc1-c1ccc(C(=O)NCC2CC2)cc1 :: -3.04
NCc1ccc(-c2nc(-c3ccc(Cl)c(O)c3)c(-c3ccncc3)[nH]2)cc1 :: 3.82
c1cnn2ncc(-c3ccnc(Nc4ccc5c(c4)OCCO5)n3)c2c1 :: 3.69

Requested read-out: inhibition. Entry: COc1cc2c(cc1Nc1nc(N3CCc4ccccc43)c3cc[nH]c3n1)N(C(=O)CN(C)C)CC2
1

Here is the next molecule: COc1ccccc1Nc1ncc(-c2ccccc2)o1
1.6

Here is the next molecule: CN(C)c1cc2c(Nc3ccc4nc(Cc5ccccc5)[nH]c4c3)ncnc2cn1
4.92

Here is the next molecule: Cc1nnc(-c2ccc(C)c(-c3ccc(C(=O)Nc4cccc(C#N)c4)cc3)c2)o1
1.3

Here is the next molecule: O=C1NC(=O)C(c2cccc(Cl)c2)=C1Nc1ccc(O)c(Cl)c1
1.15

Here is the next molecule: NS(=O)(=O)c1cccc(-c2ccc3c(NC(=O)C4CC4)n[nH]c3c2)c1
-1.93

Here is the next molecule: Nc1nc(-c2ccccn2)c(-c2ccc3ncccc3n2)s1
2.74

Here is the next molecule: COc1cc(C)c(NC(=O)CN(C)C)cc1Nc1nc(Nc2cccc(F)c2C(N)=O)c2cc[nH]c2n1
2.62

Here is the next molecule: COc1cc2ncn(-c3cc(OCc4ccccc4Cl)c(C(N)=O)s3)c2cc1OC
0.55

Here is the next molecule: CCCN1CCC=C(c2ccc(Nc3nc(Nc4ccccc4C(N)=O)c4cc[nH]c4n3)c(C)c2)C1
2.74

Here is the next molecule: COc1ccc(-c2coc3ncnc(N)c23)cc1
2.3

Here is the next molecule: Cc1cccc(-c2n[nH]cc2-c2ccc3ncccc3n2)n1
-0.2

Here is the next molecule: CS(=O)(=O)Nc1ccc(N/C=C2\C(=O)Nc3ccccc32)cc1
0.19

* * *

- Tested on: Tyrosine-protein kinase ABL1 (Homo sapiens), P00519 [Y253F]
- experimental-conditions: at 0.1 µM
Mark criterion met for reported inhibition of 3% or greater; mark criterion not met for anything smaller.

Reference set, count: 3
Cc1nn(C)c2cc(N(C)c3ccnc(Nc4cccc(S(N)(=O)=O)c4)n3)ccc12 :: criterion met
COc1ccc(-c2ccncc2)cc1C(N)=O :: criterion met
COc1cc2ncn(-c3cc(OCc4ccccc4Cl)c(C(N)=O)s3)c2cc1OC :: criterion met

Let's switch to this molecule now.
Could you please find out whether CS(=O)(=O)CCNCc1ccc(-c2ccc3ncnc(Nc4ccc(OCc5ccccc5)c(Cl)c4)c3c2)o1 has inhibition that meets 3% or exceeds it?
criterion not met

* * *

- target: Tyrosine-protein kinase receptor UFO (Homo sapiens)
- experimental-conditions: at 1 µM
- Description: GSK_PKIS: AXL mean inhibition at 1 uM [Nanosyn]
endpoint: inhibition (%)
Lab book: enter the figure in %, no units written.

O=C1NC(=O)C(c2cccc(Cl)c2)=C1Nc1ccc(O)c(Cl)c1 :: -0.83

Requested read-out: inhibition. Entry: COc1cc2ncn(-c3cc(O[C@H](C)c4ccccc4Cl)c(C(N)=O)s3)c2cc1OC
8.37

Here is the next compound: NCc1ccc(-c2nc(-c3ccc(Cl)c(O)c3)c(-c3ccncc3)[nH]2)cc1
3.04

Here is the next compound: NS(=O)(=O)c1ccc(N/N=C2\C(=O)Nc3ccc(C(=O)NCCc4c[nH]cn4)cc32)cc1
9.57

Here is the next compound: CCN1CCC(CC(=O)Nc2n[nH]c3nc(-c4cccs4)c(Br)cc23)CC1
2.24
